- System: PF-382
- assay: selective drug sensitivity score (sDSS, relative to normal bone marrow) (sDSS (score)); higher = more potent and effective on the cell line relative to normal bone marrow cells;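 note: ALL cell lines in 384-well plates, five doses spanning 10,000-fold, each plate scaled between vehicle and 100 µmol/L benzalkonium chloride controls, sDSS an adapted area-under-curve metric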
- protocolConditions: 72 h
The label depends only on selective drug sensitivity score: 1.0 if it is at least 0, 0.0 if it is smaller.

| molecule | classAssignment |
| --- | --- |
| Cn1c(=O)n(-c2ccc(C(C)(C)C#N)cc2)c2c3cc(-c4cnc5ccccc5c4)ccc3ncc21 [Dactolisib] (top concentration 1000 nM) | 1.0 |
| Cc1cn(-c2cc(NC(=O)c3ccc(C)c(Nc4nccc(-c5cccnc5)n4)c3)cc(C(F)(F)F)c2)cn1 [Nilotinib] (top concentration 10000 nM) | 1.0 |
| COc1ccc(C[C@H](NC(=O)[C@H](C)NC(=O)CN2CCOCC2)C(=O)N[C@@H](Cc2ccccc2)C(=O)[C@@]2(C)CO2)cc1 [ONX-0914] (top concentration 10000 nM) | 1.0 |
| C[C@H](Nc1ncnc2[nH]cnc12)c1cc2ccc(F)cc2nc1-c1ccccn1 [AMG319] (top concentration 1000 nM) | 0.0 |

---

Listing of entries alongside the reported selective drug sensitivity score.
- System: MOLT-14
- assay: selective drug sensitivity score (sDSS, relative to normal bone marrow) (sDSS (score)); higher = more potent and effective on the cell line relative to normal bone marrow cells
- protocolConditions: 72 h

| compound | selective drug sensitivity score |
| --- | --- |
| CO[C@@H](C)Cn1c(=O)n(C)c2cnc3ccc(-c4cncc(C(C)(C)O)c4)cc3c21 (top concentration 2500 nM) | 2.08 |
| O=C(Nc1ccc(OC(F)(F)Cl)cc1)c1cnc(N2CC[C@@H](O)C2)c(-c2cc[nH]n2)c1 [Asciminib] (top concentration 1000 nM) | -0.28 |
| CCOc1cc2ncc(C#N)c(Nc3ccc(OCc4ccccn4)c(Cl)c3)c2cc1NC(=O)/C=C/CN(C)C [Neratinib] (top concentration 1000 nM) | 4.28 |
| COc1nc(N)nc2c1ncn2[C@@H]1O[C@H](CO)[C@@H](O)[C@@H]1O [Nelarabine] (top concentration 10000 nM) | 8.78 |
| CN1CCN(c2ccc(C(=O)Nc3n[nH]c4ccc(Cc5cc(F)cc(F)c5)cc34)c(NC3CCOCC3)c2)CC1 [Entrectinib] (top concentration 1000 nM) | -0.7 |
| CNC(=O)c1ccccc1Nc1nc(Nc2ccc3c(c2OC)CCC[C@H](N2CCN(CCO)CC2)C3)ncc1Cl (top concentration 5000 nM) | 1.56 |
| O=C(CCNC(=O)c1ccc(OC(F)(F)F)cc1)N[C@@H]1CCCc2ccccc21 [ML390] (top concentration 50000 nM) | 16.6 |
| O=C(c1ccc(F)c(F)c1Nc1ccc(I)cc1F)N1CC(O)([C@@H]2CCCCN2)C1 [Cobimetinib] (top concentration 1000 nM) | 5.22 |
| CN1CCN(c2ccc3nc(-c4c(N)c5c(F)cccc5[nH]c4=O)[nH]c3c2)CC1 [Dovitinib] (top concentration 10000 nM) | 0.46 |
| O=C(c1ccc(C(=O)N2CCC(N3CCCC3)CC2)c(Nc2ccccc2)c1)N1CCC(N2CCCC2)CC1 [UNC1215] (top concentration 10000 nM) | 0 |
| CC[C@]1(O)C[C@H]2CN(CCc3c([nH]c4ccccc34)[C@@](C(=O)OC)(c3cc4c(cc3OC)N(C)[C@H]3[C@@](O)(C(=O)OC)[C@H](OC(C)=O)[C@]5(CC)C=CCN6CC[C@]43[C@@H]65)C2)C1 [Vinblastine] (top concentration 1000 nM) | -2.5 |
| C[C@]12C=CC(=O)C=C1CC[C@@H]1[C@@H]2[C@@H](O)C[C@@]2(C)[C@H]1CC[C@]2(O)C(=O)CO [Prednisolone] (top concentration 10000 nM) | -0.5 |
| Cc1ccc(Nc2nccc(N(C)c3ccc4c(C)n(C)nc4c3)n2)cc1S(N)(=O)=O [Pazopanib] (top concentration 10000 nM) | -1.26 |
